molecular target: Myeloid Cell Leukemia 1 (Mcl-1) (Homo sapiens)
Sequence (Q07820 whole entry): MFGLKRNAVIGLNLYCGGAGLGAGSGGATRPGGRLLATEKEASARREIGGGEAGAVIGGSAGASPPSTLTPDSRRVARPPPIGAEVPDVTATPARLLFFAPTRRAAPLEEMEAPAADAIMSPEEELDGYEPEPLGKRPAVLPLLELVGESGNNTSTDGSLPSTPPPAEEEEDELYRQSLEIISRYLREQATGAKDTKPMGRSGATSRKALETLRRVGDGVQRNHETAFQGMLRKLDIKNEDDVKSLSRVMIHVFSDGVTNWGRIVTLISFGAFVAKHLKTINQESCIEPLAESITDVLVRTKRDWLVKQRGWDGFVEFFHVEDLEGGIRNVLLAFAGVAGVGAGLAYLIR
pKi: −log10 of the molar value.
MET means recorded pKi is 10 or above; NOT MET means it is below 10.

| compound | target or test system | discrete label |
| --- | --- | --- |
| COCCOCc1nn(C)c2c1CSCc1cc(n(C)n1)CCc1cc(c3ccc(F)c(F)c3c1)OCCCc1c(C(=O)O)n(C)c3c-2c(Cl)ccc13 (single isomer, unassigned) [Compound 15] | Myeloid Cell Leukemia 1 (Mcl-1) (Homo sapiens) | NOT MET |
| Cn1nc2cc1CCc1cc(c3ccc(F)cc3c1)OCCCc1c(C(=O)O)n(CCN3CCOCC3)c3c(c(Cl)ccc13)-c1c(cnn1C)CSC2 (single isomer, unassigned) [Compound 21] | Myeloid Cell Leukemia 1 (Mcl-1) (Homo sapiens) | MET |
| Cn1nc2cc1CCc1cc(c3ccc(F)cc3c1)OCCCc1c(C(=O)O)[nH]c3c(c(Cl)ccc13)-c1c(cnn1C)CSC2 (single isomer, unassigned) [Compound 25] | Myeloid Cell Leukemia 1 (Mcl-1) (Homo sapiens) | NOT MET |
| COCCOCCc1nn(C)c2c1CSCc1cc(n(C)n1)CCc1cc(c3ccc(F)cc3c1)OCCCc1c(C(=O)O)n(C)c3c-2c(Cl)ccc13 (single isomer, unassigned) [Compound 17] | Myeloid Cell Leukemia 1 (Mcl-1) (Homo sapiens) | MET |
| COCCOCc1nn(C)c2c1CSCc1cc(n(C)n1)CCc1cc(c3ccc(F)c(F)c3c1)OCCCc1c(C(=O)O)n(C)c3c-2c(Cl)ccc13 (single isomer, unassigned) [Compound 16] | Myeloid Cell Leukemia 1 (Mcl-1) (Homo sapiens) | MET |
| COCCOCc1nn(C)c2c1CSCc1cc(n(C)n1)CCc1cc(c3ccccc3c1)OCCCc1c(C(=O)O)n(C)c3c-2c(Cl)ccc13 (single isomer, unassigned) [Compound 4] | Myeloid Cell Leukemia 1 (Mcl-1) (Homo sapiens) | MET |
| COCCOCc1nn(C)c2c1CSCc1cc(n(C)n1)CCc1cc(c3ccccc3c1)OCCCc1c(C(=O)O)n(C)c3c-2c(Cl)ccc13 (single isomer, unassigned) [Compound 3] | Myeloid Cell Leukemia 1 (Mcl-1) (Homo sapiens) | NOT MET |
| COCCOCCc1nn(C)c2c1CSCc1cc(n(C)n1)CCc1cc(c3ccc(F)cc3c1)OCCCc1c(C(=O)O)n(C)c3c-2c(Cl)ccc13 (single isomer, unassigned) [Compound 18] | Myeloid Cell Leukemia 1 (Mcl-1) (Homo sapiens) | NOT MET |
| Cc1nn(C)c2c1CSCc1cc(n(C)n1)CCc1cc(c3ccc(F)cc3c1)OCCCc1c(C(=O)O)n(C)c3c-2c(Cl)ccc13 (single isomer, unassigned) [Compound 10] | Myeloid Cell Leukemia 1 (Mcl-1) (Homo sapiens) | NOT MET |
| Cc1nn(C)c2c1CSCc1cc(n(C)n1)CCc1cc(c3ccccc3c1)OCCCc1c(C(=O)O)n(C)c3c-2c(Cl)ccc13 (single isomer, unassigned) [Compound 11a] | Myeloid Cell Leukemia 1 (Mcl-1) (Homo sapiens) | NOT MET |
| COCCOCCn1c(C(=O)O)c2c3ccc(Cl)c(c31)-c1c(cnn1C)CSCc1cc(n(C)n1)CCc1cc(c3ccc(F)cc3c1)OCCC2 (single isomer, unassigned) [Compound 22] | Myeloid Cell Leukemia 1 (Mcl-1) (Homo sapiens) | MET |
| COCCOCc1nn(C)c2c1CSCc1cc(n(C)n1)CCc1cc(c3ccc(F)cc3c1)OCCCc1c(C(=O)O)n(C)c3c-2c(Cl)ccc13 (single isomer, unassigned) [Compound 8] | Myeloid Cell Leukemia 1 (Mcl-1) (Homo sapiens) | MET |
| Cc1nn(C)c2c1CSCc1cc(n(C)n1)CSc1cc(c3ccccc3c1)OCCCc1c(C(=O)O)n(C)c3c-2c(Cl)ccc13 (single isomer, unassigned) [Compound 2] | Myeloid Cell Leukemia 1 (Mcl-1) (Homo sapiens) | MET |
| COCCn1c(C(=O)O)c2c3ccc(Cl)c(c31)-c1c(cnn1C)CSCc1cc(n(C)n1)CCc1cc(c3ccc(F)cc3c1)OCCC2 (single isomer, unassigned) [Compound 23] | Myeloid Cell Leukemia 1 (Mcl-1) (Homo sapiens) | MET |
| Cc1nn(C)c2c1CSCc1cc(n(C)n1)CCc1cc(c3ccccc3c1)OCCCc1c(C(=O)O)n(C)c3c-2c(Cl)ccc13 (single isomer, unassigned) [Compound 11] | Myeloid Cell Leukemia 1 (Mcl-1) (Homo sapiens) | NOT MET |
| Cn1nc2cc1CCc1cc(c3ccc(F)cc3c1)OCCCc1c(C(=O)O)n(CCN3CCOCC3)c3c(c(Cl)ccc13)-c1c(cnn1C)CSC2 (single isomer, unassigned) [Compound 19] | Myeloid Cell Leukemia 1 (Mcl-1) (Homo sapiens) | NOT MET |
| Cc1nn(C)c2c1CSCc1cc(n(C)n1)CCc1cc(c3ccc(F)cc3c1)OCCCc1c(C(=O)O)n(C)c3c-2c(Cl)ccc13 (single isomer, unassigned) [Compound 9] | Myeloid Cell Leukemia 1 (Mcl-1) (Homo sapiens) | NOT MET |
| COCCn1c(C(=O)O)c2c3ccc(Cl)c(c31)-c1c(cnn1C)CSCc1cc(n(C)n1)CCc1cc(c3ccc(F)cc3c1)OCCC2 (single isomer, unassigned) [Compound 24] | Myeloid Cell Leukemia 1 (Mcl-1) (Homo sapiens) | NOT MET |
